Listed here are molecules together with their documented superoxide response (% of plate).
# Experimental Protocol: calorie-restriction mimetic ROS inhibitors, yeast – validation compound set, pilot screen (AID 2706);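 further: yeast exposed to compound for one week at 30 degrees C before staining; 100% = mean of all compound wells on the same plate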
# Measurement Conditions: S. cerevisiae aging, superoxide DHE fluorescence; at 10 µM; hits give low values
Endpoint Label: superoxide response (% of plate) (%)

>  <Molecule>
COc1cc2c(cc1OC)-c1nnc(C)n1C(C)(C)C2

>  <Result>
94.7

$$$$
>  <Molecule>
COc1ccc(C(=O)c2oc3ccc(Br)cc3c2NC(C)=O)cc1

>  <Result>
104

$$$$
>  <Molecule>
CC(C)N(C(=O)Cc1ccccc1[N+](=O)[O-])C(C)C

>  <Result>
104

$$$$
>  <Molecule>
c1ccc2[nH]c(-c3cscn3)nc2c1

>  <Result>
85.3

$$$$
>  <Molecule>
Cc1cccc(Oc2coc3cc(OC(=O)c4cncc(Br)c4)ccc3c2=O)c1

>  <Result>
78.9

$$$$
>  <Molecule>
OC(C#CCN1CCCC1)(c1ccccc1)c1cccnc1 (stereo unspecified)

>  <Result>
83.2

$$$$

###

# Experimental Protocol: calorie-restriction mimetic ROS inhibitors, yeast – validation compound set, pilot screen (AID 2706);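 further: yeast exposed to compound for one week at 30 degrees C before staining; 100% = mean of all compound wells on the same plate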
# Measurement Conditions: S. cerevisiae aging, superoxide DHE fluorescence; at 10 µM; hits give low values
Calls of active or inactive are those of the source.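 How the source made its calls: active means superoxide response below 65% of plate, a cut near 3 SD across the whole screen; inactive means the rest.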

>  <Molecule>
O=C(c1ccco1)N1CCCN(Cc2nc(-c3ccc4c(c3)OCO4)no2)CC1

>  <superoxide response (% of plate)>
102% (inactive)

$$$$
>  <Molecule>
Cc1ccc2nc(NC3=NC(CC(=O)O)C(=O)N3)nc(C)c2c1 (centres undefined)

>  <superoxide response (% of plate)>
96.2% (inactive)

$$$$
>  <Molecule>
CC(=O)c1ccc(CCCCCCCCCC(=O)O)s1

>  <superoxide response (% of plate)>
117% (inactive)

$$$$
>  <Molecule>
CC(=O)NS(=O)(=O)c1ccc(N)cc1

>  <superoxide response (% of plate)>
101% (inactive)

$$$$
>  <Molecule>
COc1ccc(NC(=O)C2CCCN2C(=O)OC(C)(C)C)cc1 (centres undefined)

>  <superoxide response (% of plate)>
53.3% (active)

$$$$
>  <Molecule>
Cc1ccccc1NC(=O)NCCc1c[nH]c2ccccc12

>  <superoxide response (% of plate)>
96.6% (inactive)

$$$$
>  <Molecule>
CC(=O)OC(CC(=O)O)C[N+](C)(C)C (centres undefined)

>  <superoxide response (% of plate)>
103% (inactive)

$$$$
>  <Molecule>
c1cc(-c2ccncc2)ccn1

>  <superoxide response (% of plate)>
117% (inactive)

$$$$
>  <Molecule>
COc1ccc2cc(C(=O)Nc3ccc(S(N)(=O)=O)cc3)sc(=O)c2c1OC

>  <superoxide response (% of plate)>
101% (inactive)

$$$$
>  <Molecule>
CC1=C(C)C(=O)C(CCCCC#CCCCC#CCO)=C(C)C1=O

>  <superoxide response (% of plate)>
77.4% (inactive)

$$$$
>  <Molecule>
COc1ccc(-c2noc(-c3ccccc3-c3ccccc3)n2)cc1

>  <superoxide response (% of plate)>
94.3% (inactive)

$$$$
>  <Molecule>
CC(=O)NC(NC(=S)N1CCCCCC1)C(Cl)(Cl)Cl (centres undefined)

>  <superoxide response (% of plate)>
104% (inactive)

$$$$
>  <Molecule>
CC(C)CC(NC(=O)CNC(=O)C1O[C@@H]2OC(C)(C)O[C@@H]2[C@H]2OC(C)(C)O[C@@H]12)C(=O)O (some centres undefined)

>  <superoxide response (% of plate)>
97.8% (inactive)

$$$$
>  <Molecule>
Cc1ccnc2c1NC(=O)c1cccnc1N2C1CC1

>  <superoxide response (% of plate)>
108% (inactive)

$$$$
>  <Molecule>
CCOc1ccc2nc(S(N)(=O)=O)sc2c1

>  <superoxide response (% of plate)>
102% (inactive)

$$$$
>  <Molecule>
CCc1oc2ccccc2c1C(=O)c1cc(Br)c(O)c(Br)c1

>  <superoxide response (% of plate)>
118% (inactive)

$$$$
>  <Molecule>
CC(C)(C)NCC(O)COc1cccc2c1C[C@H](O)[C@H](O)C2 (some centres undefined)

>  <superoxide response (% of plate)>
104% (inactive)

$$$$
>  <Molecule>
CN1C(=O)NC(c2ccc(O)cc2)C2=C1CN(c1cccc3ccccc13)C2=O (centres undefined)

>  <superoxide response (% of plate)>
94.5% (inactive)

$$$$
>  <Molecule>
CCOC(=O)n1c(=O)oc2ccccc21

>  <superoxide response (% of plate)>
105% (inactive)

$$$$
>  <Molecule>
O=C1c2ccccc2N2C(=O)c3ccccc3C2N1Cc1ccco1 (centres undefined)

>  <superoxide response (% of plate)>
95.6% (inactive)

$$$$
>  <Molecule>
O=C(O)c1cc2cc(F)ccc2[nH]1

>  <superoxide response (% of plate)>
113% (inactive)

$$$$
>  <Molecule>
O=C(/C=C/Sc1ccccc1)c1ccccc1

>  <superoxide response (% of plate)>
109% (inactive)

$$$$
>  <Molecule>
COC(=O)c1ccccc1NC(=O)c1ccc(COc2ccc3c(c2)CCC3)cc1

>  <superoxide response (% of plate)>
82.8% (inactive)

$$$$
>  <Molecule>
OCCC1CN(Cc2ccccc2-c2ccco2)CCN1C1CCCC1 (centres undefined)

>  <superoxide response (% of plate)>
95% (inactive)

$$$$

Values were extracted from PubChem BioAssay.
